- TESTED_TARGET: hDHFR (Homo sapiens (Human))
- Sequence (P00374 whole entry): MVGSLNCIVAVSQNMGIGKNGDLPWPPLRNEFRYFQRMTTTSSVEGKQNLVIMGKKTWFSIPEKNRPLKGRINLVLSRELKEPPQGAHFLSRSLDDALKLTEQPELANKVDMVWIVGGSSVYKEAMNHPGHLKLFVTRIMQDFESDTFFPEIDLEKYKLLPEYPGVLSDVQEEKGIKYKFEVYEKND
- MEASUREMENT_PROTOCOL: Inhibition of recombinant hDHFR
- Assay type: biochemical
- SETUP_CONDITIONS: Section I Table 3; 37° C., 18 μM dihydrofolic acid; title says μM, head nM; read-out: Human DHFR
TEST_READOUT: IC50 (µM)
Answers are plain numbers, in µM.

IC50 for Cc1nc(N)nc2ccc(Nc3cc(F)c(F)c(F)c3)nc12 [Compound A] is 3.1

###

- System: A-10 cells
- MEASUREMENT_PROTOCOL: Cellular microtubule depolymerization (loss of cellular microtubules) in A-10 cells
- Assay type: cell-based
- SETUP_CONDITIONS: Section VIII Table 1; read-out: EC50 (nM) in A-10 cells (Loss of cellular microtubules)
TEST_READOUT: EC50 (nM)
One number for each entry, in nM.

Summary: COc1ccc(/C=C\c2cc(OC)c(OC)c(OC)c2)cc1O [CA4, Combretastatin A-4, reference compound] , A-10 cells, EC50 = 13
